- Tested on: NCI-H522
- method.summary: Growth inhibition of human NCI-H522 cells at 10 uM incubated for 48 hrs by sulforhodamine B assay relative to control
- Format: functional
- experimental.parameters: NCI-H522, 48 h, read-out: GI
observation.type: inhibition of growth at 10 µM

* c1ccc(-c2nc3sc(-c4ccccc4)cn3n2)cc1 | 19%
* CC(=O)c1ccc(NC(=O)Cn2nc(-c3ccc(Cl)cc3)nc2N)cc1 | 28%
* C/C(=N\O)c1ccc(NC(=O)Cn2nc(-c3ccc(Cl)cc3)nc2N)cc1 | 31.5%
* C/C(=N/O)c1ccc(NC(=O)Cn2nc(-c3ccccc3)nc2N)cc1 | 30%
* CC(=O)c1ccc(NC(=O)Cn2nc(C(F)(F)F)nc2N)cc1 | 21%
* COc1cc(-c2nc3sc(-c4ccccc4)cn3n2)cc(OC)c1OC | 30%
* COc1cc(-c2nc(N)n(CC(=O)Nc3ccc(/C(C)=N\O)cc3)n2)cc(OC)c1OC | 29.2%
* COc1ccc(-c2nc3sc(-c4ccccc4)cn3n2)cc1 | 70%
* Clc1ccc(-c2cn3nc(-c4ccccc4)nc3s2)cc1 | 29%
* C/C(=N/O)c1ccc(NC(=O)Cn2nc(C(F)(F)F)nc2N)cc1 | 31%
* COc1ccc(-c2nc3sc(-c4ccc(Cl)cc4)cn3n2)cc1 | 39%

Where these numbers come from: ChEMBL document CHEMBL4270577
